# experimental system: Muscarinic acetylcholine receptor M1 (Homo sapiens) (UniProt P11229)
# Sequence (P11229 whole entry, looked up): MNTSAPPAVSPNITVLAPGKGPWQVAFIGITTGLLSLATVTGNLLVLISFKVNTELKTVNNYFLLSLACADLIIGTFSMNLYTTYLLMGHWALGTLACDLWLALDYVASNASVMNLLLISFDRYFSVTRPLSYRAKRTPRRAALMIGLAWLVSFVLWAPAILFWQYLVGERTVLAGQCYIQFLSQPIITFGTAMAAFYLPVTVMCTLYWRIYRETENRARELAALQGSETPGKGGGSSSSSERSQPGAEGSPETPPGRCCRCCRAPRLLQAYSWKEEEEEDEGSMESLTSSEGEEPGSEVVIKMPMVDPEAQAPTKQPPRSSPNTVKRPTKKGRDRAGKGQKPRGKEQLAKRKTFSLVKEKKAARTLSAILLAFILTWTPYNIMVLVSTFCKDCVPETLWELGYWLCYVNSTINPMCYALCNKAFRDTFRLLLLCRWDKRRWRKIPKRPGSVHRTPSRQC
# measurement description: CHRM1 blockers of acetylcholine calcium response – CHO-K1 cells, Fluo-8 calcium fluorescence, 1536-well, primary screen (AID 588852);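 note: peak over basal fluorescence ratio during 140 s after agonist addition; 0% = ACh EC80 plus DMSO and 100% = DMSO alone without agonist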
# experimental parameters: CHO-K1 hM1, Fluo-8 calcium fluorescence, ACh EC80 antagonist; at 3 µM
Out of some 360,000 compounds screened, about 4,600 (1.3%) were called active.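 Rule for the calls: active = percent inhibition above its own plate's cutoff, namely the mean of that plate's compound wells plus 3 SD; inactive = the rest.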 For the sample, actives were picked, then their nearest neighbours and some compounds at random.
// one of Y (active), N (inactive), no free text

{"compound": "CC(C)Cc1ccc(-c2cc3nc(NCc4cccc(Cl)c4)ccn3n2)cc1", "experimental system": "Muscarinic acetylcholine receptor M1 (Homo sapiens) (UniProt P11229)", "label class": "N"}
{"compound": "Cc1ccc(NC(=O)CN(C)C(=O)c2cccc(S(=O)(=O)N3CCCC3)c2)cc1", "experimental system": "Muscarinic acetylcholine receptor M1 (Homo sapiens) (UniProt P11229)", "label class": "N"}
{"compound": "COc1cccc(/C=N/Nc2cc(C)nc(-c3ccccc3O)n2)c1O", "experimental system": "Muscarinic acetylcholine receptor M1 (Homo sapiens) (UniProt P11229)", "label class": "Y"}
{"compound": "COc1ccccc1-n1c(SCC(=O)Nc2cccc(C(=O)O)c2)nnc1-c1ccccc1O", "experimental system": "Muscarinic acetylcholine receptor M1 (Homo sapiens) (UniProt P11229)", "label class": "N"}
{"compound": "CCOC(=O)c1nnn(CC(=O)Nc2cccc(F)c2)c1C(=O)OCC", "experimental system": "Muscarinic acetylcholine receptor M1 (Homo sapiens) (UniProt P11229)", "label class": "N"}

stdin: In this assay, the call recorded for Cc1ccccc1C#CC1=CC(=O)CC(C)(C)C1 was what?
stdout: N

stdin: Per the assay record, what outcome was assigned to CCOc1ccc(OCc2ccc(C(=O)N(C)c3ccccc3)o2)cc1 ?
stdout: N

---

inhibition by entry:
# experimental system: Muscarinic acetylcholine receptor M1 (Homo sapiens) (UniProt P11229)
# measurement description: CHRM1 blockers of acetylcholine calcium response – CHO-K1 cells, Fluo-8 calcium fluorescence, 1536-well, primary screen (AID 588852);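 note: peak over basal fluorescence ratio during 140 s after agonist addition; 0% = ACh EC80 plus DMSO and 100% = DMSO alone without agonist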
# experimental parameters: CHO-K1 hM1, Fluo-8 calcium fluorescence, ACh EC80 antagonist; at 3 µM; stronger effect = higher value
Screen size: about 360,000 compounds; about 4,600 (1.3%) were called active. Many of the other results were omitted from the sample, so actives are more common in it than they were.

Below: 3 molecules and their reported inhibition.
{"molecule": "COc1ccc(CCNC2=C(Cl)C(=O)N(Cc3ccccc3)C2=O)cc1OC", "parameter": "inhibition", "reported result": "13.4% (inactive)"}
{"molecule": "CCOc1ccc(CCNC(=O)C2=C(C)C(=O)OC23CCC(C)CC3)cc1OCC (centres undefined)", "parameter": "inhibition", "reported result": "-7.29% (inactive)"}
{"molecule": "CN(C)CCCO/N=C(\\c1ccccc1)c1ccncc1", "parameter": "inhibition", "reported result": "34.6% (active)"}

stdin: Query for Muscarinic acetylcholine receptor M1 (Homo sapiens) (UniProt P11229): what inhibition does the record show for O=C(O/N=C(/c1ccccc1)c1ccncc1)c1ccccc1[N+](=O)[O-] ?
stdout: 0.78% (inactive)

---

Measured inhibition values are reported for all entries that follow.
# experimental system: Muscarinic acetylcholine receptor M1 (Homo sapiens) (UniProt P11229)
# measurement description: CHRM1 blockers of acetylcholine calcium response – CHO-K1 cells, Fluo-8 calcium fluorescence, 1536-well, primary screen (AID 588852);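 note: peak over basal fluorescence ratio during 140 s after agonist addition; 0% = ACh EC80 plus DMSO and 100% = DMSO alone without agonist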
# experimental parameters: CHO-K1 hM1, Fluo-8 calcium fluorescence, ACh EC80 antagonist; at 3 µM; stronger effect = higher value
Screen size: about 360,000 compounds; about 4,600 (1.3%) were called active. This excerpt belongs to a sample that is enriched for actives.
// return numeric value only (unit: %, not printed)

Use these answered entries as a reference point.
{"molecule": "CC1(C)Cc2c(cnn2-c2cccc(F)c2)C(NC(=O)c2cc[n+]([O-])cc2)C1 (configuration not stated)", "units label": "%", "inhibition": 9.23}
{"molecule": "Cc1ccc(-n2ncc3c2CCCC3NC(=O)c2cnccn2)cc1C (configuration not stated)", "units label": "%", "inhibition": -17.9}
{"molecule": "OC[C@@H]1CN(Cc2ccc(-c3ccccc3)cc2)C[C@H](n2cnc3c(NC4CCCC4)ncnc32)O1", "units label": "%", "inhibition": 32}
{"molecule": "O=C(Nc1c2c(nn1-c1ccccc1)CS(=O)(=O)C2)C1CCCC1", "units label": "%", "inhibition": -10.8}

stdin: What inhibition value was documented for this molecule, C/C(=N\NC(=O)c1ccc2ccccc2c1)c1cccnc1 ?
stdout: -15.4

stdin: GET /values?readout=inhibition&item= CCCCCCCCCCOC(=O)Cn1c(COc2cccc(OC)c2)[n+](C)c2ccccc21
stdout: 58.2

stdin: Record request: inhibition value, item Cc1nc2ccc(C(=O)N(C)CC3CCCN(CCc4ccc(Cl)cc4)C3)cc2[nH]1 (configuration not stated)
stdout: 17.1

stdin: What does the data say about its inhibition? Entry: OC[C@@H]1CN(Cc2cccs2)C[C@H](n2cnc3c(NC4CCCC4)ncnc32)O1
stdout: -11.8

stdin: // lookup inhibition for COc1ccccc1Oc1ccc(S(=O)(=O)Nc2cccnc2)cc1
stdout: 35.1

stdin: Please report the recorded inhibition for COc1ccc(NC(=O)/C(N=Nc2cccc(S(=O)(=O)Nc3ccc(SC(F)F)cc3)c2)=C(\C)O)cc1 .
stdout: -7.35

stdin: Reported inhibition, molecule O=C(Nc1ccccc1Cl)/C(Cl)=C(\Cl)S(=O)c1ccccc1 (configuration not stated) : ____
stdout: -6.91

stdin: For the molecule shown here, O=C(CC1CCCCC1)Nc1c2c(nn1-c1ccc(F)cc1)CS(=O)(=O)C2 , give the reported inhibition.
stdout: 104
